Target: Glyceraldehyde-3-phosphate dehydrogenase, glycosomal (Leishmania mexicana)
Sequence (Q27890 whole entry, looked up): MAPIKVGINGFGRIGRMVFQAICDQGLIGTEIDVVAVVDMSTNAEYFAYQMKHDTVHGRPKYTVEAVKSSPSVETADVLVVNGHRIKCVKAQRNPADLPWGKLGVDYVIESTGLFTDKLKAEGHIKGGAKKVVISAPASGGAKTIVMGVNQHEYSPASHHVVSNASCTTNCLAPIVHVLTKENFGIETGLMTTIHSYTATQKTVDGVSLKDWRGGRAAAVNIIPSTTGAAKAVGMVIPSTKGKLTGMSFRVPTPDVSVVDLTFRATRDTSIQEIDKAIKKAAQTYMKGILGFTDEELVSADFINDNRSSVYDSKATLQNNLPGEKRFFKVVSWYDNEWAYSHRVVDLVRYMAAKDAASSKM

compound	measured.target	IC50 (µM)
O=C(N[C@@H]1[C@H](O)[C@@H](CO)O[C@H]1n1cnc2c(NCc3cccc4ccccc34)ncnc21)c1ccc(O)c(O)c1	Glyceraldehyde-3-phosphate dehydrogenase, glycosomal (Leishmania mexicana)	18
COc1cc(OC)cc(C(=O)N[C@@H]2C(Cn3cnc4c(NCc5ccccc5Sc5ccccc5CO)ncnc43)OC(CO)[C@@H]2O)c1 (stereo partly drawn)	Glyceraldehyde-3-phosphate dehydrogenase, glycosomal (Leishmania mexicana)	75
CC(=O)Oc1cccc(C(=O)N[C@@H]2[C@H](O)[C@@H](CO)O[C@H]2n2cnc3c(NCc4cccc5ccccc45)ncnc32)c1	Glyceraldehyde-3-phosphate dehydrogenase, glycosomal (Leishmania mexicana)	50
COc1cc(OC)cc(C(=O)N[C@@H]2C(Cn3cnc4c(NCc5ccccc5)ncnc43)OC(CO)[C@@H]2O)c1 (stereo partly drawn)	Glyceraldehyde-3-phosphate dehydrogenase, glycosomal (Leishmania mexicana)	20
COc1cc(OC)cc(C(=O)N[C@@H]2C(Cn3cnc4c(NC(c5ccccc5)c5ccccc5)ncnc43)OC(CO)[C@@H]2O)c1 (stereo partly drawn)	Glyceraldehyde-3-phosphate dehydrogenase, glycosomal (Leishmania mexicana)	55
O=C(N[C@@H]1[C@H](O)[C@@H](CO)O[C@H]1n1cnc2c(NCc3cccc4ccccc34)ncnc21)c1ccc(Cl)cc1	Glyceraldehyde-3-phosphate dehydrogenase, glycosomal (Leishmania mexicana)	100
O=C(N[C@@H]1[C@H](O)[C@@H](CO)O[C@H]1n1cnc2c(NCc3cc(O)cc4ccccc34)ncnc21)c1cccc(Cl)c1	Glyceraldehyde-3-phosphate dehydrogenase, glycosomal (Leishmania mexicana)	4
COc1cc(OC)cc(C(=O)N[C@@H]2[C@H](O)[C@@H](CO)O[C@H]2n2cnc3c(NCc4cccc5ccccc45)ncnc32)c1	Glyceraldehyde-3-phosphate dehydrogenase, glycosomal (Leishmania mexicana)	2
COc1cc(OC)cc(C(=O)N[C@@H]2C(Cn3cnc4c(N)ncnc43)OC(CNC(=O)C(c3ccccc3)c3ccccc3)[C@@H]2O)c1 (stereo partly drawn)	Glyceraldehyde-3-phosphate dehydrogenase, glycosomal (Leishmania mexicana)	60
CC(=O)Oc1ccc(C(=O)N[C@@H]2[C@H](O)[C@@H](CO)O[C@H]2n2cnc3c(NCc4cccc5ccccc45)ncnc32)cc1	Glyceraldehyde-3-phosphate dehydrogenase, glycosomal (Leishmania mexicana)	100
COc1cccc(C(=O)N[C@@H]2[C@H](O)[C@@H](CO)O[C@H]2n2cnc3c(NCc4cc(OC)cc5ccccc45)ncnc32)c1	Glyceraldehyde-3-phosphate dehydrogenase, glycosomal (Leishmania mexicana)	3
COc1cc(OC)cc(C(=O)N[C@@H]2[C@H](O)[C@@H](CO)O[C@H]2n2cnc3c(NCc4cc(OC)cc5ccccc45)ncnc32)c1	Glyceraldehyde-3-phosphate dehydrogenase, glycosomal (Leishmania mexicana)	2
Nc1ncnc2c1ncn2C1O[C@H](CNC(=O)C(c2ccccc2)c2ccccc2)[C@@H](O)[C@H]1O (stereo partly drawn)	Glyceraldehyde-3-phosphate dehydrogenase, glycosomal (Leishmania mexicana)	250
COc1cc(OC)cc(C(=O)N[C@@H]2C(Cn3cnc4c(NC5CCCc6ccccc65)ncnc43)OC(CO)[C@@H]2O)c1 (stereo partly drawn)	Glyceraldehyde-3-phosphate dehydrogenase, glycosomal (Leishmania mexicana)	75
COc1cc(CNc2ncnc3c2ncn3[C@@H]2O[C@H](CO)[C@@H](O)[C@H]2NC(=O)c2cc(Cl)cc(Cl)c2)c2ccccc2c1	Glyceraldehyde-3-phosphate dehydrogenase, glycosomal (Leishmania mexicana)	25
COc1cccc(C(=O)N[C@@H]2[C@H](O)[C@@H](CO)O[C@H]2n2cnc3c(NCc4ccc(OC)c5ccccc45)ncnc32)c1	Glyceraldehyde-3-phosphate dehydrogenase, glycosomal (Leishmania mexicana)	6
O=C(N[C@@H]1[C@H](O)[C@@H](CO)O[C@H]1n1cnc2c(NCc3cccc4ccccc34)ncnc21)c1ccc(O)cc1	Glyceraldehyde-3-phosphate dehydrogenase, glycosomal (Leishmania mexicana)	80
CC(=O)Oc1cc(OC(C)=O)cc(C(=O)N[C@@H]2[C@H](O)[C@@H](CO)O[C@H]2n2cnc3c(NCc4cccc5ccccc45)ncnc32)c1	Glyceraldehyde-3-phosphate dehydrogenase, glycosomal (Leishmania mexicana)	10
COc1cccc(C(=O)N[C@@H]2[C@H](O)[C@@H](CO)O[C@H]2n2cnc3c(NCc4cccc5ccccc45)ncnc32)c1	Glyceraldehyde-3-phosphate dehydrogenase, glycosomal (Leishmania mexicana)	6
COc1cc(OC)cc(C(=O)N[C@@H]2C(Cn3cnc4c(N)ncnc43)OC(CNC(=O)CC3CCCCC3)[C@@H]2O)c1 (stereo partly drawn)	Glyceraldehyde-3-phosphate dehydrogenase, glycosomal (Leishmania mexicana)	100
COc1cc(OC)cc(C(=O)N[C@@H]2C(Cn3cnc4c(Nc5ccc6ccccc6c5)ncnc43)OC(CO)[C@@H]2O)c1 (stereo partly drawn)	Glyceraldehyde-3-phosphate dehydrogenase, glycosomal (Leishmania mexicana)	60
O=C(N[C@@H]1[C@H](O)[C@@H](CO)O[C@H]1n1cnc2c(NCc3cccc4ccccc34)ncnc21)c1cc(O)cc(O)c1	Glyceraldehyde-3-phosphate dehydrogenase, glycosomal (Leishmania mexicana)	5
Nc1ncnc2c1ncn2C1O[C@H](CNC(=O)CC2CCCCC2)[C@@H](O)[C@H]1O (stereo partly drawn)	Glyceraldehyde-3-phosphate dehydrogenase, glycosomal (Leishmania mexicana)	250
COc1cc(OC)cc(C(=O)N[C@@H]2[C@H](O)[C@@H](CO)O[C@H]2n2cnc3c(NCc4cc(O)cc5ccccc45)ncnc32)c1	Glyceraldehyde-3-phosphate dehydrogenase, glycosomal (Leishmania mexicana)	2
O=C(N[C@@H]1[C@H](O)[C@@H](CO)O[C@H]1n1cnc2c(NCc3cccc4ccccc34)ncnc21)c1cccc(O)c1	Glyceraldehyde-3-phosphate dehydrogenase, glycosomal (Leishmania mexicana)	25
O=C(N[C@@H]1[C@H](O)[C@@H](CO)O[C@H]1n1cnc2c(NCc3cc(O)cc4ccccc34)ncnc21)c1cc(Cl)cc(Cl)c1	Glyceraldehyde-3-phosphate dehydrogenase, glycosomal (Leishmania mexicana)	25
COc1ccc(C(=O)N[C@@H]2[C@H](O)[C@@H](CO)O[C@H]2n2cnc3c(NCc4cccc5ccccc45)ncnc32)cc1OC(C)=O	Glyceraldehyde-3-phosphate dehydrogenase, glycosomal (Leishmania mexicana)	78
COc1cc(C(=O)N[C@@H]2[C@H](O)[C@@H](CO)O[C@H]2n2cnc3c(NCc4cccc5ccccc45)ncnc32)ccc1OC(C)=O	Glyceraldehyde-3-phosphate dehydrogenase, glycosomal (Leishmania mexicana)	10
